# Lookup of reported pIC50 keyed by entry
measured on: Acetylcholinesterase (Rattus norvegicus, UniProt P37136)
Sequence (P37136 whole entry): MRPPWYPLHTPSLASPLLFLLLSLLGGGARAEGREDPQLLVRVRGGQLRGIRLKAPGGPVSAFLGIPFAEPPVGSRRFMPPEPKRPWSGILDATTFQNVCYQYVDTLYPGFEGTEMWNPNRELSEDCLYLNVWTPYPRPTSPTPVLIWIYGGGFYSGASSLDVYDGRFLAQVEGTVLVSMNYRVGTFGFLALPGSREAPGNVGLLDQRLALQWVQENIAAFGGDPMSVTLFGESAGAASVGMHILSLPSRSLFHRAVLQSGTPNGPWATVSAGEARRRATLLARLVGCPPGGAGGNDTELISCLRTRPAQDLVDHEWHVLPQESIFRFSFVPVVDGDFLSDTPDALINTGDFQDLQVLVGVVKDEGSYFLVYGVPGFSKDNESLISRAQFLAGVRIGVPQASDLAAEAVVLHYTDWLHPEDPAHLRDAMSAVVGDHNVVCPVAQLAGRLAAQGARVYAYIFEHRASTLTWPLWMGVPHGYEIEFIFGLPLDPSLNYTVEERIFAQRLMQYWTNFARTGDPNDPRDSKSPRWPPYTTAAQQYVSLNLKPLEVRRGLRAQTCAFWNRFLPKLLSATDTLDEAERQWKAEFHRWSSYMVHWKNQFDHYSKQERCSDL
pIC50: −log10 of the molar value.
recorded metric: pIC50

smiles str	measured on	recorded metric	measured
CCN(CCN1C(=O)c2ccccc2C1=O)Cc1ccccc1OC	Acetylcholinesterase (Rattus norvegicus, UniProt P37136)	pIC50	6.05
CCN(CCCCCCN1C(=O)c2ccccc2C1=O)Cc1ccccc1OC	Acetylcholinesterase (Rattus norvegicus, UniProt P37136)	pIC50	6.48
CC(C)N1CCN(CCCCCCN2C(=O)c3ccccc3C2=O)CC1	Acetylcholinesterase (Rattus norvegicus, UniProt P37136)	pIC50	5.20
CCN(CCCCCCN1C(=O)c2ccccc2C1=O)Cc1ccccc1	Acetylcholinesterase (Rattus norvegicus, UniProt P37136)	pIC50	5.47
CC(C)N1CCN(CCCN2C(=O)c3ccccc3C2=O)CC1	Acetylcholinesterase (Rattus norvegicus, UniProt P37136)	pIC50	5.08
CN(CCCCN1C(=O)c2ccccc2C1=O)Cc1ccccc1	Acetylcholinesterase (Rattus norvegicus, UniProt P37136)	pIC50	5.37
C#CCN(CCCCCCN1C(=O)c2ccccc2C1=O)Cc1ccccc1OC	Acetylcholinesterase (Rattus norvegicus, UniProt P37136)	pIC50	5.37
CC(C)N1CCN(CCCCCN2C(=O)c3ccccc3C2=O)CC1	Acetylcholinesterase (Rattus norvegicus, UniProt P37136)	pIC50	5.27
C#CCN(CCCCCCN1C(=O)c2ccccc2C1=O)Cc1ccccc1	Acetylcholinesterase (Rattus norvegicus, UniProt P37136)	pIC50	5.12
CCN(CCCCN1C(=O)c2ccccc2C1=O)Cc1ccccc1OC	Acetylcholinesterase (Rattus norvegicus, UniProt P37136)	pIC50	7.40
CCN(CCCCN1C(=O)c2ccccc2C1=O)Cc1ccccc1	Acetylcholinesterase (Rattus norvegicus, UniProt P37136)	pIC50	6.22
C#CCN(CCCCN1C(=O)c2ccccc2C1=O)Cc1ccccc1	Acetylcholinesterase (Rattus norvegicus, UniProt P37136)	pIC50	5.40
CN(CCN1C(=O)c2ccccc2C1=O)Cc1ccccc1	Acetylcholinesterase (Rattus norvegicus, UniProt P37136)	pIC50	4.80
COc1ccccc1CN(C)CCCCN1C(=O)c2ccccc2C1=O	Acetylcholinesterase (Rattus norvegicus, UniProt P37136)	pIC50	5.43
COc1ccccc1CN(C)CCN1C(=O)c2ccccc2C1=O	Acetylcholinesterase (Rattus norvegicus, UniProt P37136)	pIC50	4.86
CCN(CCCN1C(=O)c2ccccc2C1=O)Cc1ccccc1OC	Acetylcholinesterase (Rattus norvegicus, UniProt P37136)	pIC50	6.40
COc1ccccc1CN(C)CCCCCCN1C(=O)c2ccccc2C1=O	Acetylcholinesterase (Rattus norvegicus, UniProt P37136)	pIC50	6.22
CN(CCCN1C(=O)c2ccccc2C1=O)Cc1ccccc1	Acetylcholinesterase (Rattus norvegicus, UniProt P37136)	pIC50	4.89
CCN(CCN1C(=O)c2ccccc2C1=O)Cc1ccccc1	Acetylcholinesterase (Rattus norvegicus, UniProt P37136)	pIC50	4.88
C#CCN(CCCN1C(=O)c2ccccc2C1=O)Cc1ccccc1OC	Acetylcholinesterase (Rattus norvegicus, UniProt P37136)	pIC50	5.39
CCN(CCCN1C(=O)c2ccccc2C1=O)Cc1ccccc1	Acetylcholinesterase (Rattus norvegicus, UniProt P37136)	pIC50	5.96
C#CCN(CCCN1C(=O)c2ccccc2C1=O)Cc1ccccc1	Acetylcholinesterase (Rattus norvegicus, UniProt P37136)	pIC50	6.57
C#CCN(CCCCCN1C(=O)c2ccccc2C1=O)Cc1ccccc1OC	Acetylcholinesterase (Rattus norvegicus, UniProt P37136)	pIC50	4.85
COc1ccccc1CN(C)CCCN1C(=O)c2ccccc2C1=O	Acetylcholinesterase (Rattus norvegicus, UniProt P37136)	pIC50	5.01
